experiment: NCI Yeast Anticancer Drug Screen. Data for the mlh1 rad18 strain (AID 175)
reportedConditions: S. cerevisiae mlh1 rad18 strain growth inhibition; at 50.0 µM; active compounds read high
The panel holds about 79,000 compounds, 15% with a hit somewhere; the sample as a whole holds those more often.

- compound: "CCOC(=O)c1nc[nH]c1C(=O)OCC"
  outputUnit: "%"
  growth inhibition: 12
- compound: "CCOC(=O)NC(=O)c1cn(C2OC(CO)C(O)C2O)c(=O)[nH]c1=O (stereo not drawn)"
  outputUnit: "%"
  growth inhibition: 44.5
- compound: "C=CS(=O)(=O)c1ccc(Nc2cc(S(=O)(=O)O)c(N)c3c2C(=O)c2ccccc2C3=O)cc1"
  outputUnit: "%"
  growth inhibition: -36.1
- compound: "O=C(OCCO)c1ccccc1O"
  outputUnit: "%"
  growth inhibition: 1.35
- compound: "c1ccc2c(c1)CCCN2c1nc(N2CCCCC2)nc(N2CCOCC2)n1"
  outputUnit: "%"
  growth inhibition: 20.1
- compound: "COC(=O)c1cccc2ccc3cccc(C=O)c3c12"
  outputUnit: "%"
  growth inhibition: -14.5
- compound: "C/C(=N/O)c1ccc(C(F)(F)F)cc1"
  outputUnit: "%"
  growth inhibition: -2.15
- compound: "NC(=S)N/N=C\\C(CC(O)C(O)CO)=N\\NC(N)=S (stereo not drawn)"
  outputUnit: "%"
  growth inhibition: 10.2
- compound: "O=C(O)C1C2CCC(O2)C1C(=O)Nc1cccc2cccnc12 (stereo not drawn)"
  outputUnit: "%"
  growth inhibition: 17.8
- compound: "C#CCN1CCCC1"
  outputUnit: "%"
  growth inhibition: 10.2
- compound: "Nc1ccc2c(c1)Cc1c-2cc(Cl)c(N)c1Cl"
  outputUnit: "%"
  growth inhibition: 6.2
- compound: "CSc1cnn(CCC#N)c(=O)n1"
  outputUnit: "%"
  growth inhibition: 2.35
- compound: "OCC1OC(O)C(N=Cc2ccc3c(c2)OCO3)C(O)C1O (stereo not drawn)"
  outputUnit: "%"
  growth inhibition: -19.9

---

experiment: NCI Yeast Anticancer Drug Screen. Data for the sgs1 mgt1 strain (AID 161);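 also: 0% = growth of cultures given vehicle only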
reportedConditions: S. cerevisiae sgs1 mgt1 strain, at 50.0 µM, active compounds read high
About 79,000 compounds went through this panel and 15% of them were active in at least one assay; those are over-represented in the sample as a whole.
In this section, each of the molecules is paired with its reported growth inhibition.

- molecule: "CC1CC2OC(=O)C(C)C2CC2(C)C(OC3OC(CO)C(O)C(O)C3O)OCCC12 (stereo unspecified)"
  outputUnit: "%"
  growth inhibition: -17.9
- molecule: "O=C(Nc1ccc(Cc2ccc(NC(=O)Nc3nc4ccccc4s3)cc2)cc1)Nc1nc2ccccc2s1"
  outputUnit: "%"
  growth inhibition: -2.25
- molecule: "CCCCn1cc(C(=O)O)c(=O)c2c3sccc3ccc21"
  outputUnit: "%"
  growth inhibition: -8.95
- molecule: "CCC1C(=O)N(C)c2ccccc21 (stereo unspecified)"
  outputUnit: "%"
  growth inhibition: -10.1
- molecule: "CC(C(=O)O)/C(=C\\c1ccc2c(c1)OCO2)C(=O)O (stereo unspecified)"
  outputUnit: "%"
  growth inhibition: -12.9
- molecule: "CCCCCNC(=O)c1ccc([N+](=O)[O-])cc1"
  outputUnit: "%"
  growth inhibition: 3.75
- molecule: "CCNC(=O)NS(=O)(=O)c1ccc(Sc2ccc(Cl)cc2)nc1"
  outputUnit: "%"
  growth inhibition: -7.5
- molecule: "Cn1c(=O)c2c(nc(N/N=C/c3ccccc3C(=O)O)n2C)n(C)c1=O"
  outputUnit: "%"
  growth inhibition: -7.9
- molecule: "CC(=O)OC1C/C(C)=C/CCC(C)/C=C/C2(C)CCC(C(C)(C)O)C12 (stereo unspecified)"
  outputUnit: "%"
  growth inhibition: 11.9
- molecule: "CC(=O)n1oc2c(Br)cc(Br)cc2c1=O"
  outputUnit: "%"
  growth inhibition: 3.7
- molecule: "C=C(Cl)C(=C)CCC(Cl)C(C)(C)Cl (stereo unspecified)"
  outputUnit: "%"
  growth inhibition: -13.7
